Test system: 786-0
test: NCI tumour cell line growth inhibition, 48 h
Activity calls are given as the source filed them. Cut-off read from the data, not from the text of the source: active = GI50 up to about 1.1 µM and inactive = higher.
Log the outcome using a class from t (active), f (inactive)

compound	group
CCC1(O)C[C@H]2CN(CCCc3c([nH]c4ccccc34)[C@@](C(=O)OC)(c3cc4c(cc3OC)N(C)C3[C@](O)(C(=O)OC)[C@H](OC(C)=O)[C@]5(CC)C=CCN6CC[C@]43[C@H]65)C2)C1 (some centres undefined)	t

Q: Could you check what this test reported for CCCCCCCC(=O)OC[C@@H](C[As](=O)(O)O)OC(=O)CCCCCCC ?
A: f

Q: Could you check what this test reported for COc1ccc2c(c1)CCc1c-2n(CCN(C)C)c2ccc(OC)cc12 ?
A: f

* * *

Tested on: KM-20L2
test: NCI tumour cell line growth inhibition, 48 h
Calls of active or inactive are those of the source. Cut-off read from the data, not from the text of the source: active = GI50 up to about 1.1 µM and inactive = higher.
quantity-kind: GI50

> print(dat)
                                   compound  measured.target  quantity.kind               result
1  CO[C@@]12[C@H](COC(N)=O)C3=C(C(=O)C(C)=C(N)C3=O)N1C[C@@H]1N[C@@H]12          KM-20L2           GI50    1.3 µM (inactive)
2  COC(=O)C1=C(C)N2CCCOC2(C)C(C(=O)OC)C1c1cccc(Cl)c1 (stereo unspecified)          KM-20L2           GI50   24.4 µM (inactive)
3  C#CCN(N=O)C(=O)NC(CCCCNC(=O)OCc1ccccc1)C(=O)OCc1ccccc1 (stereo unspecified)          KM-20L2           GI50   54.6 µM (inactive)
4               N#C/C(=C\c1ccc(O)cc1)C(N)=O          KM-20L2           GI50  > 100 µM (inactive)

Consider the following items and state reported GI50 for each.
1. Cc1cc(Cl)ccc1NC(=O)C(=O)Cc1occc(=O)c1O
2. N#CC1(C#N)C(C#N)(C#N)C12CCCCCC2
3. COCCOCOC(CCCCO)c1cc(C)c(O[Si](C)(C)C(C)(C)C)c(C)c1 (stereo unspecified)
4. CC1C2=CC=C(O2)C(C)(C)C2=CC=C(O2)C(C)(C)C2=CC=C(O2)C(C)(C)C2=CC=C1O2
5. CN/N=C(/Cc1occc(=O)c1O)C(=O)Nc1ccccc1C
6. OCC12C=CC(C1)c1ccccc12 (stereo unspecified)

A:
1: > 100 µM (inactive); 2: 16.6 µM (inactive); 3: 4.72 µM (inactive); 4: > 100 µM (inactive); 5: > 100 µM (inactive); 6: > 100 µM (inactive)

Consider the following items and state reported GI50 for each.
1. C=CCCC(=O)CC(=O)OCc1ccccc1
2. ClC1CCC2OOC1O2 (stereo unspecified)
3. CC(C)c1cccc2sc(NC(=O)C(=O)C(C#N)c3cccc4ccccc34)nc12 (stereo unspecified)
4. CCC1CN2CCc3c([nH]c4ccccc34)C2C[C@@H]1CC(=O)N(C)C (stereo partly specified)
5. Oc1cc(O)c2c(-c3c(O)c(-c4ccc(O)c(O)c4)[o+]c4cc(O)cc(O)c34)c(O)c(-c3ccc(O)c(O)c3)[o+]c2c1
6. Cc1nc2c(nc1C)C(=O)C1=C(C2=O)C2C=CC1CC2

A:
> 100 µM (inactive)
> 100 µM (inactive)
> 100 µM (inactive)
> 100 µM (inactive)
46 µM (inactive)
23.3 µM (inactive)

Consider the following items and state reported GI50 for each.
1. COc1ccc2c(c1)[n+]([O-])c(/C(C)=N/NC(N)=S)c(C)[n+]2[O-]
2. CCCCCCCCCCCCCCCCc1c(O)nc(NC#N)nc1C(=O)OC
3. CCc1nc2ccccc2c(=O)n1/N=C(\N=N\c1ccc(Cl)cc1)c1ccc(N(C)C)cc1
4. N#CC1=C(N)n2c(s/c(=C\c3ccc(Cl)cc3)c2=O)=C(c2nc3ccccc3[nH]2)C1c1ccc(Cl)cc1 (stereo unspecified)
5. CCC1=C(C(C)=O)[C@@H]2CCCCC[C@@H](C(=O)OC)C2C1=O (stereo partly specified)
6. Cc1cc(C(O)CCCc2ccccc2)cc(C)c1O (stereo unspecified)

A:
1: 39.4 µM (inactive); 2: > 25 µM (inactive); 3: 23.6 µM (inactive); 4: 2.21 µM (inactive); 5: > 100 µM (inactive); 6: > 100 µM (inactive)

Consider the following items and state reported GI50 for each.
1. CC1=C[C@]2(O)C(=O)[C@H](C)C[C@H]3[C@@H](CC[C@@](C)(O)/C=C\2C1=O)C3(C)C
2. Cc1ccc(SC(CCC(Sc2ccc(C)cc2)Sc2ccc(C)cc2)Sc2ccc(C)cc2)cc1
3. CCOC(=O)N1Cc2ccoc2C1
4. O=C(N/N=C1\C(=O)N(c2nccs2)C(=O)C(=O)C1c1nc2ccccc2s1)c1ccccc1O (stereo unspecified)

A:
1: 14.5 µM (inactive); 2: > 100 µM (inactive); 3: > 100 µM (inactive); 4: > 100 µM (inactive)

* * *

Tested on: HOP-92
test: NCI tumour cell line growth inhibition, 48 h
Calls of active or inactive are those of the source. Rule as the data show it: active = GI50 up to about 1.1 µM and inactive = higher.
quantity-kind: GI50

Here's what some known entries look like.
> print(dat)
                                   molecule  measured.target  quantity.kind               result
1  C=CC/N=C(\S)Nc1sc2c(c1C(=O)OCC)CC(C)CC2 (stereo unspecified)           HOP-92           GI50     33 µM (inactive)
2  C/C=C/OC1C(C2COC(C)(C)O2)OC2OC(C)(C)OC21 (stereo unspecified)           HOP-92           GI50  > 100 µM (inactive)
3             Cc1cc(=O)n2nc(CN3CCCCC3)sc2n1           HOP-92           GI50  > 100 µM (inactive)

Consider the following items and state reported GI50 for each.
1. CC(=O)Nc1c(C)cc2c(nc3n2CCC3OC(C)=O)c1[N+](=O)[O-] (stereo unspecified)
2. CC(=O)OC12c3ccccc3-c3ccccc3C1C1C(=O)OC(=O)C12 (stereo unspecified)
3. Cc1nc2ccccc2nc1-c1ccc(/N=[N+](\[O-])c2ccc(-c3nc4ccccc4nc3C)cc2)cc1
4. O=C1NC(c2ccccc2)C1N(Cc1ccccc1)Cc1ccccc1 (stereo unspecified)
5. Cc1ccc(Oc2ccc(C)cc2N)cc1
6. NC(Cc1ccc(O)c(O)c1)P(=O)(O)O (stereo unspecified)
7. c1csc(-c2cc(-c3ccsc3)c(-c3ccsc3)s2)c1
8. C/C(=C\CNc1ncnc2[nH]c(Cl)nc12)CO

A:
1. > 100 µM (inactive)
2. > 10 µM (inactive)
3. > 39.5 µM (inactive)
4. > 100 µM (inactive)
5. 32.3 µM (inactive)
6. > 100 µM (inactive)
7. > 100 µM (inactive)
8. > 100 µM (inactive)

* * *

Tested on: U-251
test: NCI tumour cell line growth inhibition, 48 h
Calls of active or inactive are those of the source. No stated cut-off is given here; in the data, active = GI50 up to about 1.1 µM and inactive = higher.
Log the outcome using a class from yes for active, no for inactive

Example cases with answers are listed next.
compound	group
COc1cccc2c1C(=O)c1c(O)c3c(c(O)c1C2=O)C[C@@](O)(C(C)=O)CC3S(=O)(=O)O (stereo partly drawn)	no
CCCSCC(P(=O)(O)O)P(=O)(O)O.NC1CCCCC1	no
Cc1ccc(Oc2ccc(C)cc2N)cc1	no
CCOC(=O)C(CC(C)C)NC(=O)C(Cc1ccc(N(CCCl)CCCl)cc1)NC(C)=O (stereo not drawn)	no
CCCCCCNC(=S)N/N=C(\C)c1ccccn1	yes

Q: Could you check what this test reported for COc1ccc(CC2Cc3ccccc3CCN2)cc1OC (stereo not drawn) ?
A: no

Q: Could you check what this test reported for CCCN(CCC)C(=S)N/N=C/c1cccc(C)n1 ?
A: yes

Q: Could you check what this test reported for CCCN1CC=CCC1 ?
A: no

Q: Could you check what this test reported for S=C1Cc2cc3ccccc3nc2-c2ccccc2N1 ?
A: no

Q: Could you check what this test reported for CCCCCCSC[C@H](OC(C)=O)[C@@H](OC(C)=O)[C@@H](OC(C)=O)[C@@H](COC(C)=O)OC(C)=O ?
A: no

* * *

Tested on: OVCAR-3
test: NCI tumour cell line growth inhibition, 48 h
Active and inactive are the calls of the source. Rule as the data show it: active = GI50 up to about 1.1 µM and inactive = higher.
Log the outcome using a class from active, inactive

Example cases with answers are listed next.
molecule	group
Cc1ccc2[nH]c3c(C)c4cc[n+](C)cc4c(C)c3c2c1	inactive
COc1cc2c(cc1OC)C(=O)Cc1ccc3c(c1CNCC2)OCO3	inactive
CO[C@@]12C[C@@H](C)C3=CCC(C)=C3CC1=C(C)C(=O)O2	inactive
CC1(C)CC2(C)CC1CC2O (configuration not stated)	inactive
Nc1ccc(-c2nc3ccccc3s2)cc1C(F)(F)F	inactive

Shift focus to the following entry.
Q: Could you check what this test reported for C/C=C(\C)C(=O)O[C@@H]1CC(C)(C)CC2C3=CCC4[C@]56CC[C@](O)(OC5)C(C)(C)C6CC[C@@]4(C)C3(C)CC[C@]21C(=O)O (some centres not stated) ?
A: inactive
